# Lookup of reported inhibition keyed by entry
Organism: Rattus norvegicus
Test: Inhibition of voltage-gated calcium channel in Wistar rat synaptoneurosomes at 100 uM after 30 mins by fluorescent ratiometric indicator method

Past entries and their recorded results:
COMPOUND | inhibition
c1ccc(CNC23OC4C5C6CC(C7C6C4C72)C53)cc1 (configuration not stated) | 52%
COc1ccc(CNC23CC4CC(CC(C4)C2)C3)cc1 | 71%
N#Cc1c2ccccc2cn1CCCNC12CC3CC(CC(C3)C1)C2 | 54%

Sample OC12C3C4CC5C6C4C1C6C(C53)N2Cc1ccccc1 (configuration not stated) ; inhibition observed: > 95%

Sample CN(C)c1cccc2c(S(=O)(=O)NCCCNC34CC5CC(CC(C5)C3)C4)cccc12 ; inhibition observed: > 95%

Sample OC12C3C4CC5C6C4C1C6C(C53)N2CCN1CCN(Cc2ccccc2)CC1 (configuration not stated) ; inhibition observed: 51%

Sample O=[N+]([O-])c1ccc(NCCCNC23CC4CC(CC(C4)C2)C3)c([N+](=O)[O-])c1 ; inhibition observed: 12%

----------
# Lookup of reported pIC50 keyed by entry
Tested on: CHO
Assay: Cytotoxicity against CHO cells by MTT assay
Type: cell-based
Conditions: Cricetulus griseus
The value called pIC50 is obtained by taking minus log10 of the concentration in mol/L.

Past entries and their recorded results:
COMPOUND | ASSAY RESULT
CN(C)c1cccc2c(S(=O)(=O)NCCCNC34CC5CC(CC(C5)C3)C4)cccc12 | 5.13
N#Cc1c2ccccc2cn1CCCNC12CC3CC(CC(C3)C1)C2 | 5.09
CN(C)c1cccc2cc(S(=O)(=O)NCCN3C4C5C6CC7C8C6C4C8C3(O)C75)ccc12 (stereo not drawn) | 3.92

Sample CCN(CC)CCCC(C)Nc1ccnc2cc(Cl)ccc12 (stereo not drawn) ; pIC50 observed: 4.45

Sample OC12C3C4CC5C6C4C1C6C(C53)N2Cc1ccccc1 (stereo not drawn) ; pIC50 observed: 4.07

Sample O=[N+]([O-])c1ccc(NCCCNC23CC4CC(CC(C4)C2)C3)c([N+](=O)[O-])c1 ; pIC50 observed: 5.10

----------
# Lookup of reported Ratio IC50 keyed by entry
System: Plasmodium falciparum Dd2
Test: Inhibition of voltage-gated calcium channel in Plasmodium flaciparum Dd2 cells assessed as potentiation of choloroquine induced antimalarial activity by measuring ratio of chloroquine IC50 in presence to absence of compound at 1 uM
# output: bare number, no unit

Past entries and their recorded results:
COMPOUND | Ratio IC50
OC12C3C4CC5C6C4C1C6C(C53)N2CCN1CCN(Cc2ccccc2)CC1 (stereo not given) | 0.81
CN(C)c1cccc2c(S(=O)(=O)NCCCNC34CC5CC(CC(C5)C3)C4)cccc12 | 0.35

// compound O=C(OCCNC12OC3C4C5CC(C6C5C3C61)C42)c1cccc(/C=C/[N+](=O)[O-])c1 (stereo not given) , assay Plasmodium falciparum Dd2, Ratio IC50 value: 0.55

// compound CN(C)c1cccc2cc(S(=O)(=O)NCCN3C4C5C6CC7C8C6C4C8C3(O)C75)ccc12 (stereo not given) , assay Plasmodium falciparum Dd2, Ratio IC50 value: 0.19

// compound OC12C3C4CC5C6C4C1C6C(C53)N2Cc1ccccc1 (stereo not given) , assay Plasmodium falciparum Dd2, Ratio IC50 value: 0.36

----------
# Lookup of reported inhibition keyed by entry
Species on record: Rattus norvegicus
Experiment: Inhibition of voltage-gated calcium channel in Wistar rat synaptoneurosomes at 100 uM after 30 mins by fluorescent ratiometric indicator method
The reply should contain only the number, in %.

COMPOUND | U | inhibition
c1ccc(CNC23CC4CC(CC(C4)C2)C3)cc1 | % | 40
O=[N+]([O-])c1ccc(CNC23CC4CC(CC(C4)C2)C3)cc1 | % | 86

Continue with the next compound.
Sample O=[N+]([O-])c1ccc(CNC23OC4C5C6CC(C7C6C4C72)C53)cc1 (stereo not given) ; inhibition observed: 48

----------
Test system: Plasmodium falciparum NF54
Experiment: Inhibition of voltage-gated calcium channel in Plasmodium flaciparum NF54 cells assessed as potentiation of choloroquine induced antimalarial activity by measuring chloroquine IC50 in presence of compound at 1 uM
Activity calls are given as the source filed them. No cut-off for these calls is given here.
QUANTITY MEASURED: Activity

MOLECULE | TARGET OR SYSTEM | ASSAY RESULT
N#Cc1c2ccccc2cn1CCCNC12CC3CC(CC(C3)C1)C2 | Plasmodium falciparum NF54 | inactive
OC12C3C4CC5C6C4C1C6C(C53)N2Cc1ccccc1 (stereo not drawn) | Plasmodium falciparum NF54 | inactive
CN(C)c1cccc2c(S(=O)(=O)NCCCNC34CC5CC(CC(C5)C3)C4)cccc12 | Plasmodium falciparum NF54 | inactive

----------
System: Plasmodium falciparum
Test: Antiplasmodial activity against chloroquine sensitive Plasmodium falciparum NF54 by spectroscopic method
Assay type: functional, organism-based
QUANTITY MEASURED: IC50 (µM)
The reply should contain only the number, in µM.

Past entries and their recorded results:
COMPOUND | TARGET OR SYSTEM | IC50 [µM]
N#Cc1c2ccccc2cn1CCCNC12CC3CC(CC(C3)C1)C2 | Plasmodium falciparum | 3.83
OC12C3C4CC5C6C4C1C6C(C53)N2Cc1ccccc1 (configuration not stated) | Plasmodium falciparum | 7.62
O=[N+]([O-])c1ccc(NCCCNC23CC4CC(CC(C4)C2)C3)c([N+](=O)[O-])c1 | Plasmodium falciparum | 1.13
O=[N+]([O-])c1ccc(CNC23CC4CC(CC(C4)C2)C3)cc1 | Plasmodium falciparum | 74
O=[N+]([O-])c1ccc(CNC23OC4C5C6CC(C7C6C4C72)C53)cc1 (configuration not stated) | Plasmodium falciparum | 0.718

Continue with the next compound.
// compound OC12C3C4CC5C6C4C1C6C(C53)N2CCN1CCN(Cc2ccccc2)CC1 (configuration not stated) , assay Plasmodium falciparum, IC50 value: 9.09

----------
# Lookup of reported Ratio IC50 keyed by entry
System: Plasmodium falciparum Dd2
Test: Inhibition of voltage-gated calcium channel in Plasmodium flaciparum Dd2 cells assessed as potentiation of choloroquine induced antimalarial activity by measuring ratio of chloroquine IC50 in presence to absence of compound at 1 uM
# output: bare number, no unit

Past entries and their recorded results:
COMPOUND | Ratio IC50
N#Cc1c2ccccc2cn1CCCNC12CC3CC(CC(C3)C1)C2 | 0.58
O=[N+]([O-])c1ccc(CNC23OC4C5C6CC(C7C6C4C72)C53)cc1 (stereo not drawn) | 0.65

Continue with the next compound.
Sample COc1ccc(CCN(C)CCCC(C#N)(c2ccc(OC)c(OC)c2)C(C)C)cc1OC (stereo not drawn) ; Ratio IC50 observed: 0.27

----------
Tested on: CHO
Assay: Cytotoxicity against CHO cells by MTT assay
Format: cell-based
Conditions: Cricetulus griseus
pIC50: −log10 of the molar value.
# Lookup of reported pIC50 keyed by entry

Past entries and their recorded results:
MOLECULE | TARGET OR SYSTEM | pIC50
c1ccc(CNC23CC4CC(CC(C4)C2)C3)cc1 | CHO | < 3.38
OC12C3C4CC5C6C4C1C6C(C53)N2CCN1CCN(Cc2ccccc2)CC1 (configuration not stated) | CHO | < 3.58
c1ccc(CNC23OC4C5C6CC(C7C6C4C72)C53)cc1 (configuration not stated) | CHO | < 5.00

Sample O=C(OCCNC12OC3C4C5CC(C6C5C3C61)C42)c1cccc(/C=C/[N+](=O)[O-])c1 (configuration not stated) ; pIC50 observed: < 3.60

Sample COc1ccc(CNC23CC4CC(CC(C4)C2)C3)cc1 ; pIC50 observed: < 3.43

Sample O=[N+]([O-])c1ccc(CNC23CC4CC(CC(C4)C2)C3)cc1 ; pIC50 observed: < 3.46

Sample O=[N+]([O-])c1ccc(CNC23OC4C5C6CC(C7C6C4C72)C53)cc1 (configuration not stated) ; pIC50 observed: < 3.49

----------
Test system: Plasmodium falciparum
Test: Antiplasmodial activity against chloroquine sensitive Plasmodium falciparum NF54 by spectroscopic method
Format: functional, organism-based
Binarize IC50 at 30 µM; below is T, at or above is F.

MOLECULE | TARGET OR SYSTEM | CLASS
CN(C)c1cccc2c(S(=O)(=O)NCCCNC34CC5CC(CC(C5)C3)C4)cccc12 | Plasmodium falciparum | T
COc1ccc(CNC23CC4CC(CC(C4)C2)C3)cc1 | Plasmodium falciparum | F

Prompt: Is the reported IC50 for O=C(OCCNC12OC3C4C5CC(C6C5C3C61)C42)c1cccc(/C=C/[N+](=O)[O-])c1 (stereo unspecified) strictly below 30 µM?
Response: T

Prompt: Is the reported IC50 for CN(C)c1cccc2cc(S(=O)(=O)NCCN3C4C5C6CC7C8C6C4C8C3(O)C75)ccc12 (stereo unspecified) strictly below 30 µM?
Response: T

Prompt: Is the reported IC50 for c1ccc(CNC23CC4CC(CC(C4)C2)C3)cc1 strictly below 30 µM?
Response: F
